System: 996289-038-R-J1-PDC spheroid viability;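 further: luminescence used as a proxy for viable cell amount; spheroids exposed to compounds for seven days before viability read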
Assay: Anticancer human tumor 996289-038-R-J1-PDC patient-derived colon adenocarcinoma cell line growth inhibition [PI3K]
Details: second compound 0.316 µM; first compound 3.16 µM; active compounds read low; spheroids with HUVEC and MSC
Excerpt: Combinatorial screen of targeted agents with the PI3K inhibitors inavolisib, alpelisib, duvelisib, and copanlisib in multi-cell type tumor spheroids A high-throughput screen of multi-cell type tumor spheroids was designed to identify active combinations of targeted small molecules and PI3K pathway inhibitors. […] Compounds. […] If the clinical Cmax for an agent had not been determined, the highest concentration tested was 10 microM. […]
Flag rule - viability, T/C less than 40% flags Satisfied; the remaining entries get Not satisfied.

Solved cases below.
COMPOUND: CCCS(=O)(=O)Nc1ccc(F)c(C(=O)c2c[nH]c3ncc(-c4ccc(Cl)cc4)cc23)c1F + CC(Nc1ccc2c(c1)OCCn1cc(N3C(=O)OCC3C(F)F)nc1-2)C(N)=O
CATEGORY: Not satisfied
--
COMPOUND: C[C@@H](NC(=O)c1ncnc(N)c1Cl)c1ncc(C(=O)Nc2cc(C(F)(F)F)c(Cl)cn2)s1 + Cc1nc(NC(=O)N2CCCC2C(N)=O)sc1-c1ccnc(C(C)(C)C(F)(F)F)c1
CATEGORY: Not satisfied
--
COMPOUND: CC1(C)CCC(CN2CCN(c3ccc(C(=O)NS(=O)(=O)c4ccc(NCC5CCOCC5)c([N+](=O)[O-])c4)c(Oc4cnc5[nH]ccc5c4)c3)CC2)=C(c2ccc(Cl)cc2)C1 + Cc1nc(NC(=O)N2CCCC2C(N)=O)sc1-c1ccnc(C(C)(C)C(F)(F)F)c1
CATEGORY: Not satisfied
--
COMPOUND: C[C@@H](NC(=O)c1ncnc(N)c1Cl)c1ncc(C(=O)Nc2cc(C(F)(F)F)c(Cl)cn2)s1 + CC(Nc1ncnc2nc[nH]c12)c1cc2cccc(Cl)c2c(=O)n1-c1ccccc1
CATEGORY: Not satisfied
--
COMPOUND: C#Cc1c(F)ccc2cc(O)cc(-c3ncc4c(N5CC6CCC(C5)N6)nc(OCC56CCCN5CC(F)C6)nc4c3F)c12 (stereo not given) + COc1c(OCCCN2CCOCC2)ccc2c3n(c(=NC(=O)c4cnc(N)nc4)nc12)CCN3
CATEGORY: Satisfied
--
COMPOUND: Cn1nccc1Nc1nccc(-c2ccn(C(CO)c3ccc(Cl)c(F)c3)c(=O)c2)n1 (stereo not given) + COc1c(OCCCN2CCOCC2)ccc2c3n(c(=NC(=O)c4cnc(N)nc4)nc12)CCN3
CATEGORY: Satisfied
--
COMPOUND: C=CC(=O)N1CCN(c2nc(=O)n(-c3c(C)ccnc3C(C)C)c3nc(-c4c(O)cccc4F)c(F)cc23)C(C)C1 (stereo not given) + COc1c(OCCCN2CCOCC2)ccc2c3n(c(=NC(=O)c4cnc(N)nc4)nc12)CCN3
CATEGORY: Not satisfied

Query :: Answer whether the compound Cn1ncc(Cl)c1-c1cc(C(=O)NC(CN)Cc2cccc(F)c2)sc1Cl (stereo not given) + Cc1nc(NC(=O)N2CCCC2C(N)=O)sc1-c1ccnc(C(C)(C)C(F)(F)F)c1 has viability, T/C strictly less than 40%
Result :: Not satisfied
